The origin of these recorded values is paper PMC3306125.

Biological target: HDAC 6 (Homo sapiens, UniProt Q9UBN7)
Sequence (Q9UBN7 whole entry): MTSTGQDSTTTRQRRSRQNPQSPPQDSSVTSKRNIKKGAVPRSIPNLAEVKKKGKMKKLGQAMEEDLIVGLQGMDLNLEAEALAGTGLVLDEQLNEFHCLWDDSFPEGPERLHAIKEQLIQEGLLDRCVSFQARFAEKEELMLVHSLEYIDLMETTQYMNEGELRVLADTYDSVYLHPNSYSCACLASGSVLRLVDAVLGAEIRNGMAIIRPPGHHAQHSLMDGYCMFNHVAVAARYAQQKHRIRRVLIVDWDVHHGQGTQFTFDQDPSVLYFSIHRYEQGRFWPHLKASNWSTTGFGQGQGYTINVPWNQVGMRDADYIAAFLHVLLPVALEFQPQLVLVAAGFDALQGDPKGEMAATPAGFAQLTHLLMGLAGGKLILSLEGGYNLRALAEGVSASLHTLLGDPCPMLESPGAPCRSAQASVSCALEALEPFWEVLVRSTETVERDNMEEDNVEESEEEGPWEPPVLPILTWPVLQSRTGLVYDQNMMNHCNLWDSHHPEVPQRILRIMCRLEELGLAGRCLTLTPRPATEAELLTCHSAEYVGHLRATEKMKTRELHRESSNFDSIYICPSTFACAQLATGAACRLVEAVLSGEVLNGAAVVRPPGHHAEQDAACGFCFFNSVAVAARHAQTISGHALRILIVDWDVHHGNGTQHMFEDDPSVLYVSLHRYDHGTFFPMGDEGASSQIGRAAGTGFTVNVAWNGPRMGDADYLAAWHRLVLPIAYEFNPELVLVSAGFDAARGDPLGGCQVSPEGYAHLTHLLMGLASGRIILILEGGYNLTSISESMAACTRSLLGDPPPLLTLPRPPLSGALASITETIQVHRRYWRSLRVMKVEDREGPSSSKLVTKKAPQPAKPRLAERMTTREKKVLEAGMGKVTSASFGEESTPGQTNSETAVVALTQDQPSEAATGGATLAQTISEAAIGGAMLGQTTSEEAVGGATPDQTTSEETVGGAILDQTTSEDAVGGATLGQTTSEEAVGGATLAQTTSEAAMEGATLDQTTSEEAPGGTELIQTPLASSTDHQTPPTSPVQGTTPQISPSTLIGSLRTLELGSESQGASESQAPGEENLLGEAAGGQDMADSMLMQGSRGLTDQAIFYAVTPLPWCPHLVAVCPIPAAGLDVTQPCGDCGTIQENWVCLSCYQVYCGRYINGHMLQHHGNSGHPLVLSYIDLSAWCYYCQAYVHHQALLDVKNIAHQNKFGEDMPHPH
Assay: Recombinant HDAC 6 inhibition
Assay endpoint: IC50

Compound	Result
COc1cccc2c1C(=O)c1c(O)c3c(c(O)c1C2=O)C[C@@](O)(C(C)=O)C[C@@H]3O[C@H]1C[C@H](NCc2ccc(-c3cn(CCCCC(=O)NO)nn3)cc2)[C@H](O)[C@H](C)O1 [Compound 12a]	600 nM
